TARGET_SYSTEM: Nucleoprotein (Lymphocytic choriomeningitis virus (strain Armstrong)) (UniProt P09992)
Sequence (P09992 whole entry, looked up): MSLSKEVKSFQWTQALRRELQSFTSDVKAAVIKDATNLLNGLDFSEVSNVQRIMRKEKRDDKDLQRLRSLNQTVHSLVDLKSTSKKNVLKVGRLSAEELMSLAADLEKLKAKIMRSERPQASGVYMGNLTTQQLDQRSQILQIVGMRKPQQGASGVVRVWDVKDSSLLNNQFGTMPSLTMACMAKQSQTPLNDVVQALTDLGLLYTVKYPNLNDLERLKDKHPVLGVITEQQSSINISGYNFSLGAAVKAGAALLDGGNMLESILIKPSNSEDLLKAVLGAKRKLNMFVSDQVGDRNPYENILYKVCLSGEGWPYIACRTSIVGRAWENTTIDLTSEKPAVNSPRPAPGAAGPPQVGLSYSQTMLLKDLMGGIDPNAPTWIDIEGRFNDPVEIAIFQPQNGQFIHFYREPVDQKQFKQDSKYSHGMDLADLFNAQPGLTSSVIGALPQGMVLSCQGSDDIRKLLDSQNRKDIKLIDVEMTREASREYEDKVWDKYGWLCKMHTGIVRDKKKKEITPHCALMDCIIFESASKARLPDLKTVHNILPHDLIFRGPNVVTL
ASSAY: qHTS for Inhibitors of the Functional Ribonucleoprotein Complex (vRNP) of Lymphocytic Choriomeningitis Arenaviruses (LCMV): LCMV Primary Screen - GLuc reporter signal (AID 1347086); also: % is scaled to controls: 0 for no effect and ±100 for the full control effect; nearly all actives have a fitted effect of over 70% in size
CONDITION_SUMMARY: LCMV minigenome vRNP cell assay, Gaussia luciferase reporter; series mostly up to 57.5 µM
Inconclusive results are not listed. Calls of active or inactive are those of the source. Calls follow the shape of the full dose curve.
The following compounds are listed with their measured activity change, negative = inhibition values.

Sample answers from the record:
- COMPOUND: "O=C(O)CCC/C=C\\C/C=C\\C=C\\[C@@H](O)C/C=C\\CCCCCO"
  TEST_VALUE: "12.9% [at 0.757 µM] (inactive)"
- COMPOUND: "CCCCC[C@H](O)/C=C/[C@H]1OC(=O)C[C@H](O)[C@@H]1C/C=C\\CCCC(=O)O"
  TEST_VALUE: "3.12% [at 5.82 µM] (inactive)"
- COMPOUND: "COC1[C@@H](OC)C[C@H](C)[C@@H](OC)C2=CC(=O)C=C(NC(=O)/C(C)=C/C=C\\[C@H](OC)[C@@H](OC(N)=O)/C(C)=C/[C@@H]1C)C2=O (stereo partly drawn)"
  TEST_VALUE: "12.1% [at 5.82 µM] (inactive)"

Lookup result for CC/C=C\C[C@H](O)/C=C/C=C\C/C=C\C/C=C\CCCC(=O)O ; measured activity change, negative = inhibition: 12.1% [at 0.757 µM] (inactive)

The compound identified as CCCCC[C@H](O)/C=C/C=C/C/C=C\CCCC(=O)O registered its activity change, negative = inhibition at 8.09% [at 0.757 µM] (inactive)

Measured activity change, negative = inhibition, CCCCCCCCCCCCCCCC(N)=O : -29.4% [at 5.82 µM] (inactive)

The reported value for C[C@]12O[C@H](C[C@@]1(O)C(=O)O)n1c3ccccc3c3c4c(c5c6ccccc6n2c5c31)CNC4=O in terms of activity change, negative = inhibition is 25.9% [at 5.82 µM] (inactive)

# activity change, negative = inhibition (compound: CCCCC/C=C\C/C=C\C/C=C\CCCCCCC(=O)O[C@H](COCCCCCCCCCCCCCCCC)COP(=O)([O-])OCC[N+](C)(C)C ) is 9.5% [at 5.82 µM] (inactive)

Form field activity change, negative = inhibition, entry NC(=O)[C@H]1CCCN1C(=O)[C@H](Cc1cnc[nH]1)NC(=O)[C@@H]1CCC(=O)N1 : -2.24% [at 5.82 µM] (inactive)

Recorded activity change, negative = inhibition (compound CCCCC[C@H](O)/C=C/[C@H]1OC(O)C[C@H](O)[C@@H]1C/C=C\CC(=O)O (stereo partly drawn) ): 5.45% [at 0.757 µM] (inactive)

###

ASSAY: Primary qHTS to identify inhibitors of SARS-CoV-2 cell entry (AID 1645846); also: nearly all actives have a fitted effect of over 45% in size
CONDITION_SUMMARY: SARS-CoV-2 pseudovirus cell entry assay, luminescence; series mostly up to 57.1 µM
Results filed as inconclusive are left out. Active and inactive are the calls of the source. Calls come from the whole dose curve.
The reply should name one outcome from TRUE for active, FALSE for inactive

Known results for molecules:
- LINE_NOTATION: "Cn1cc(CNCC2CCN(c3ncc(C(=O)NO)cn3)CC2)c2ccccc21"
  ASSIGNED_LABEL: "FALSE"
- LINE_NOTATION: "Cc1c(-c2ccnn2C)cc(C(=O)NCc2ccc(S(C)(=O)=O)cn2)c(=O)n1-c1cccc(C(F)(F)F)c1"
  ASSIGNED_LABEL: "FALSE"
- LINE_NOTATION: "C=CC(=O)N1CCC[C@@H](n2nc(-c3ccc(Oc4ccccc4)cc3)c3c(N)ncnc32)C1"
  ASSIGNED_LABEL: "FALSE"
- LINE_NOTATION: "COc1cc2c(NC3CCN(C(C)C)CC3)nc(C3CCCCC3)nc2cc1OCCCN1CCCC1"
  ASSIGNED_LABEL: "TRUE"

Next:
Fill in: this test's call for Cc1ccc(/C=N/NC(=O)c2ccccc2Oc2ccccc2)o1 is ___
FALSE
